System: NEK9
Details: concentration: 1 μM,replicates: in singlicate; n = 1;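 further: KINOMEscan kinase panel screen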
Reported values of %Inh for individual entries
Be sure to follow the number with its unit.

Record excerpt, results attached:
>  <compound>
Cc1cccc2c(-c3ccncc3)c(-c3ccc(F)cc3)nn12.Cl [GW461487]

>  <%Inh>
15%

$$$$
>  <compound>
OCCn1cc(-c2cnc3nnn(Cc4ccc5ncccc5c4)c3n2)cn1

>  <%Inh>
0%

$$$$
>  <compound>
O=C1NCCc2[nH]c(-c3ccncc3)cc21

>  <%Inh>
0%

$$$$
>  <compound>
O=C(Nc1ccc(Oc2ccc3nc(NC(=O)C4CC4)cn3n2)c(F)c1)c1cccn(-c2ccccc2)c1=O

>  <%Inh>
0%

$$$$

Task item: # input compound: O=C(NOCC1CC1)c1cc(Br)c(F)c(F)c1Nc1ccc(I)cc1Cl ; wanted: its %Inh
Reply: 0%

Task item: Entry to check: COC(=O)c1cccc(NC(=O)NC2CCN(c3ccnc(Nc4cc(OC)c(OC)c(OC)c4)n3)C2)c1 (stereo not drawn) [GSK1379767]
Reply: 26%

Task item: Next up: CS(=O)(=O)Nc1ccc(-c2ccnc3[nH]ccc23)cc1 [GSK993273]
Reply: 14%

Task item: Ok, now CC(=O)Nc1ccc(-c2cc3ncnc(SCC(=O)O)c3s2)cc1
Reply: 5%

###

System: HIPK1
Settings: concentration: 1 μM,replicates: in singlicate; n = 1
parameter: %Inh (%)
Write the answer as a number in %, unit excluded.

Task item: Return reported %Inh; argument: FC(F)(F)c1cc(Br)cc(Nc2nccc(-c3cnn4ncccc34)n2)c1 [GW810578]
Reply: 99.1

###

System: TIE1
Settings: concentration: 1 μM,replicates: in singlicate; n = 1
Note to self: class = bucket of %Inh, per bin A = under 5%, bin B = from 5% up to 90%, bin C = 90% and over

Solved cases below.
>  <lineNotation>
CC(=O)c1c(-c2ccncc2)[nH]c(-c2ccncc2)c1C

>  <discreteLabel>
bin A

$$$$
>  <lineNotation>
O=C(Nc1ccccc1)c1cccc(Oc2ccc3nccn3n2)c1

>  <discreteLabel>
bin C

$$$$

Task item: Band for the recorded %Inh of Cn1ccc2ncnc(Oc3ccc(NC(=O)Nc4cncc(C(F)(F)F)c4)c(Cl)c3)c21 ?
Reply: bin B

Task item: Can you handle O=C1NCCc2[nH]c(-c3ccncc3)cc21 next?
Reply: bin A

Task item: // next record O=C(NOCC1CC1)c1cc(Br)c(F)c(F)c1Nc1ccc(I)cc1Cl
Reply: bin A

Task item: Item: Cc1ccc(C(=O)Nc2ccc(Oc3ccc4nc(NC(=O)C5CC5)cn4c3)c(F)c2)c(=O)n1-c1ccccc1
Reply: bin C

Task item: Item: NC(=O)c1ccc(-c2cc3ncnc(SCC(=O)O)c3s2)cc1
Reply: bin A

Task item: Let us now turn to C[C@@H](Oc1cc(-n2cnc3cc(-c4ccncc4)ccc32)sc1C(N)=O)c1ccccc1Cl
Reply: bin B

Task item: Same again, this time with C[C@@H](Oc1cc(-n2cnc3cc(-c4cnn(C)c4)ccc32)sc1C(N)=O)c1ccccc1Cl
Reply: bin C

Task item: Entry to check: CN(c1cccc(CNc2nc(Nc3ccc4c(c3)CC(=O)N4)ncc2C(F)(F)F)c1)S(C)(=O)=O
Reply: bin B

Task item: Likewise for CC(C)S(=O)(=O)N1CCN(Cc2ccc3c(c2)nc(NC(=O)c2ccsc2)n3C[C@H](O)c2ccccc2)CC1 ?
Reply: bin B

Task item: Note, next up: O=C(Nc1cccc(C(F)(F)F)c1)c1cccc(Oc2ccc3nccn3n2)c1
Reply: bin B

Task item: Then what about the compound COC(=O)c1cccc(NC(=O)NC2CCN(c3ccnc(NCc4ccc(F)cc4)n3)CC2)c1 ?
Reply: bin A

###

The following compounds are listed with their measured %Inh values.
Tested on: NEK6
Conditions: concentration: 1 μM,replicates: in singlicate; n = 1
// note: answer is a bare numeric in %

>  <compound>
CS(=O)(=O)c1cccc(CNc2nc(Nc3ccc4c(c3)[C@@H]3C[C@@H]4CNC3=O)ncc2C(F)(F)F)c1

>  <testValue>
19

$$$$

Task item: Can you look up %Inh on NEK6 for CN1CCN(CCCNc2nccc(-c3c(-c4ccc(F)cc4)nn4cc(C(N)=O)ccc34)n2)CC1 ?
Reply: 0

Task item: Again, but for Cn1ccc2ncnc(Oc3ccc(NC(=O)Nc4ccnc(C(F)(F)F)c4)c(Cl)c3)c21
Reply: 0

Task item: Okay, and C[C@@H](Oc1cc(-n2cnc3ccc(-c4ccncc4)cc32)sc1C(N)=O)c1ccccc1Cl ?
Reply: 14

Task item: Next compound up: COc1ccc(Nc2nccc(N3CCC(NC(=O)c4cccc(C#N)c4)C3)n2)cc1 (stereo not drawn)
Reply: 30

Task item: Entry to check: O=c1[nH]cc(-c2ccc(O)cc2)c2sc(-c3ccncc3)cc12
Reply: 0

Task item: Item: COc1cc2ncn(-c3cc(OCC4CCCCC4)c(C(N)=O)s3)c2cc1OC
Reply: 0

Task item: Would you mind doing COc1cccc(C2=C(Nc3cccc(Cl)c3)C(=O)NC2=O)c1 as well?
Reply: 0

Task item: Request: O=C(NCC1CC1)c1ccc(-c2cc(C(=O)NC3CC3)ccc2F)cc1
Reply: 0

Task item: Now consider Cc1cccc2c(-c3ccncc3)c(-c3ccc(F)cc3)nn12.Cl .
Reply: 0

Task item: Lookup C[C@@H]1CNc2c(sc3ccc4nc(-c5ccncc5)ccc4c23)C(=O)N1
Reply: 3

Task item: Subsequent entry: C[C@@H]1CNc2c(sc3ccc4nc(-c5ccc(O)cc5)ccc4c23)C(=O)N1
Reply: 38

###

System: CDKL1
Details: concentration: 1 μM,replicates: in singlicate; n = 1
parameter: %Inh (%)
The response must be a number in % with no trailing unit.

# count of solved cases: 5
>  <lineNotation>
Cc1ccc(CC(=O)N2CCc3cc(-c4cn(C)c5ncnc(N)c45)ccc32)cc1

>  <targetEntity>
CDKL1

>  <%Inh [%]>
8

$$$$
>  <lineNotation>
CSc1nccc(-c2c(-c3ccc(F)cc3)ncn2CCCN2CCOCC2)n1.Cl

>  <targetEntity>
CDKL1

>  <%Inh [%]>
36

$$$$
>  <lineNotation>
O=C1NCCc2[nH]c(-c3ccncc3)cc21

>  <targetEntity>
CDKL1

>  <%Inh [%]>
5

$$$$
>  <lineNotation>
Cn1ccc2ncnc(Oc3ccc(NC(=O)Nc4cncc(C(F)(F)F)c4)c(Cl)c3)c21

>  <targetEntity>
CDKL1

>  <%Inh [%]>
0

$$$$
>  <lineNotation>
COc1cccc(C2=C(Nc3cccc(Cl)c3)C(=O)NC2=O)c1

>  <targetEntity>
CDKL1

>  <%Inh [%]>
18

$$$$

Task item: For the molecule shown here, C[C@@H]1CCN(C(=O)N2CCCC2)C[C@@H]1N(C)c1ncnc2[nH]ccc12 , give the reported %Inh.
Reply: 24

Task item: How about FC(F)(F)c1cc(Br)cc(Nc2nccc(-c3cnn4ncccc34)n2)c1 ?
Reply: 47

Task item: Next molecule: C[C@@H](Oc1cc(-n2cnc3cc(-c4cnn(C)c4)ccc32)sc1C(N)=O)c1ccccc1Cl
Reply: 20

Task item: Follow-up entry: Cn1ccc2ncnc(Oc3ccc(NC(=O)Nc4cccc(C(F)(F)F)c4)c(Cl)c3)c21
Reply: 29

###

Measured %Inh of individual entries
Test system: PKN2
Conditions: concentration: 1 μM,replicates: in singlicate; n = 1
The reply should be a number in %, with the unit left off.

Worked examples follow.
>  <compound>
C[C@@H](Oc1cc(-n2cnc3cc(-c4cnn(C)c4)ccc32)sc1C(N)=O)c1ccccc1Cl

>  <targetEntity>
PKN2

>  <%Inh, %>
72

$$$$
>  <compound>
COc1cc2c(Nc3ccc(NC(=O)c4ccccc4)cc3)ncnc2cc1OCCCN1CCOCC1

>  <targetEntity>
PKN2

>  <%Inh, %>
0

$$$$

Task item: Find the recorded %Inh belonging to O=C(Nc1n[nH]c2cc(-c3ccco3)ccc12)C1CC1 and report it.
Reply: 12

Task item: Then COC(=O)c1cccc(NC(=O)NC2CCN(c3ccnc(Nc4cc(OC)c(OC)c(OC)c4)n3)C2)c1 (stereo not drawn) ?
Reply: 0

Task item: Same read-out for CC(=O)Nc1ccc(-c2cc3ncnc(SCC(=O)O)c3s2)cc1 ?
Reply: 5

Task item: Same for COc1ccc(Nc2nccc(N3CCC(NC(=O)c4cccc(C#N)c4)C3)n2)cc1 (stereo not drawn)
Reply: 0

Task item: Entry to check: CCn1c(-c2nonc2N)nc2cncc(CNC3CCNCC3)c21.Cl
Reply: 0

Task item: What do you have for Cl.Nc1n[nH]c2cc(-c3ccccn3)ccc12 ?
Reply: 0

Task item: And the next one, Cl.Cl.NC[C@H](CC1CCCCC1)NC(=O)c1ccc(-c2ccnc3[nH]ccc23)s1 ?
Reply: 99

###

Test system: CDK2
Details: concentration: 1 μM,replicates: in singlicate; n = 1
Examples of compounds with documented %Inh follow.
Answer with a number only, understood to be in %.

Observe how each entry below is paired with its result.
>  <compound>
CN1CCN(CCNc2nc3cc(Oc4ccc(NC(=O)Nc5cc(C(F)(F)F)ccc5F)cc4)ccc3[nH]2)CC1.Cl.Cl

>  <unitAnnotation>
%

>  <testValue>
0

$$$$
>  <compound>
Cc1ccc(C(=O)Nc2ccc(Oc3ccc4nc(NC(=O)C5CC5)cn4c3)c(F)c2)c(=O)n1-c1ccccc1

>  <unitAnnotation>
%

>  <testValue>
1

$$$$
>  <compound>
CCNCC(Cc1ccccc1)NC(=O)c1cc(Br)c(-c2ccnc3[nH]ccc23)s1.Cl.Cl (stereo not shown)

>  <unitAnnotation>
%

>  <testValue>
0

$$$$

// next item, %Inh requested
Task item: Report %Inh for CN(c1ccc2c(c1)nc(NCc1ccc(F)cc1)n2C)c1ccnc(Nc2ccc(CS(C)(=O)=O)cc2)n1.Cl tested on CDK2.
Reply: 5
